Just for reference, PubChem BioAssay (NCI) is where these values come from.

- System: NCI/ADR-RES ovarian
- protocol_notes: NCI-60 one-dose screen, 48 h
- condition_label: 10 µM
Compounds without any hit were thinned out: in the full panel of roughly 83,000, 20% have a hit. Calls of active or inactive are those of the source. Rule for the calls: active = growth percent below 10; inactive = the rest.
// allowed return values: Y = active, N = inactive

Solved cases (4 shown):
compound	group_label
O=C(CN1CCN(C(=O)c2ccccc2)CC1)Nc1ccccc1SCc1ccccc1	N
O=C(O)c1cc([N+](=O)[O-])ccc1Oc1ccccc1	N
CCCCC1(O)CCCCC1	N
CC[C@@H](C(=O)[C@H](C)[C@H](O)[C@@H](C)[C@H]1O[C@H]([C@@H](CC)C(=O)O)CC[C@H]1C)C1O[C@]2(C=C[C@@H](O)[C@]3(CC[C@@](C)([C@H]4CC[C@](O)(CC)[C@H](C)O4)O3)O2)[C@H](C)C[C@@H]1C (stereo not given in full)	N

Now take the following compound into account.
Which outcome did this test record for the compound COc1ccc(-c2cc(-c3ccc(OC)c(OC)c3)nc(SCCCC(=O)NO)n2)cc1 ?
Y

###

- Test system: MOLT-4 leukemia
- protocol_notes: NCI-60 one-dose screen, 48 h (100 = growth as untreated, 0 = no growth, -100 = all killed)
- condition_label: 10 µM
- Procedure: Growth inhibition of the MOLT-4 human tumor cell line is measured as a screen for anti-cancer activity. Cells are grown in 96 well plates and exposed to the test compound for 48 hours. Compounds are tested at a single concentration, which is 10^-5 M for most compounds. The reported endpoint is percent growth (GI% or GIPRCNT), where numbers from 0 - 100% represent growth inhibition, and numbers from -100% - 0 represent cell death. For example, a value of 40 represents 60% growth inhibition. […]
This is part of a sample that, as a whole, favours compounds with a hit. Of some 83,000 tested, about 20% had one in any assay.
Kindly return satisfied if reported growth is no lower than 20%; return not satisfied if it is lower.

compound	group_label
O=C(Nc1ccc(OS(=O)(=O)c2ccccc2)cc1)C1CCCCC1	satisfied
O=C(Nc1cc([N+](=O)[O-])c2[nH]c(=O)c3ccccc3c2c1)C(F)(F)F	satisfied
O=C(NCCNC(=O)c1ccc(F)cc1)Nc1ccc(-n2cc(-c3ccncc3)c(-c3ccc(Cl)c(O)c3)n2)cc1	not satisfied
Cn1c2ccccc2c2c3[nH][nH]c(=O)c3c3c4ccccc4[nH]c3c21	not satisfied

Kindly determine if growth recorded for Cc1cc(C(C#N)c2ccc(Cl)cc2)c(Cl)cc1NC(=O)c1cc(I)cc(I)c1O (centres undefined) is above or exactly 20%.
not satisfied

Same thing, different compound: Oc1cccc(-c2nc3sccn3c2-c2ccncn2)c1
satisfied

Same thing, different compound: COc1cc2cc(Oc3ccc(NC(=O)Nc4ccc(Cl)c(Cl)c4)cc3)c(C)nc2cc1OC
not satisfied

Same thing, different compound: CC(=O)Nc1ccc2c(c1)C(=O)c1cccc(C(=O)O)c1-2
satisfied

Same thing, different compound: Cc1cc(CC(C)CC(C)(C)C)n(O)c(=O)c1 (centres undefined) (tested in a mixture with another compound)
not satisfied

Same thing, different compound: COCCn1cc(-c2nc(-c3cccnc3)cs2)c2cc(F)ccc21
satisfied

###

Give measured growth for each item. Keep answers brief.
- System: HCT-15 colon
- protocol_notes: NCI-60 one-dose screen, 48 h (100 = growth as untreated, 0 = no growth, -100 = all killed)
- condition_label: 10 µM
About 83,000 compounds went through this panel and 20% of them were active in at least one assay; those are over-represented in the sample as a whole.
One number for each entry, in %.

In [3]: df
Out[3]:
                                test_smiles  assay_result
0  CCOc1ccccc1/C=N\N=C(\N)N/N=C/c1ccccc1OCC          24.7

Batch of 2 molecules: report growth for each.
1. IC(I)I
2. COc1cc2cc(Oc3ccc(NC(=O)Nc4ccc(Cl)c(C(F)(F)F)c4)cc3)c(C)nc2cc1OC

[101, 1.27]

Batch of 4 molecules: report growth for each.
1. COc1ccccc1-n1c(-c2sc(NC(C)=O)nc2C)n[nH]c1=S
2. COc1ccccc1N1CCCSC1=Nc1ccccc1
3. COc1ccc(N=Nc2cc(OC)c(OC)c(OC)c2)cc1
4. CNC(=O)c1cn2c3c(c(N4CCN(C)CC4)c(F)cc3c1=O)OC[C@@H]2C

1. 94.9
2. 115
3. 82
4. 102

###

- Test system: NCI-H460 lung
- protocol_notes: NCI-60 one-dose screen, 48 h (100 = growth as untreated, 0 = no growth, -100 = all killed)
- condition_label: 10 µM
Compounds without any hit were thinned out: in the full panel of roughly 83,000, 20% have a hit.
Give measured growth for each item. Keep answers brief.
Numbers only, in %.

>>> df
                                   compound  experimental_readout  readout_unit  assay_result
0      O=C(c1ccccc1)N(C(=O)c1ccccc1)N1CCCC1                growth             %           106
1          O=C1/C(=C/c2cccc(F)c2)Cc2ccccc21                growth             %           107
2  CC1OC2CC(=O)OC2C2=C1C(=O)c1c(O)c3c(c(O)c1C2=O)C1CC(O)C3(O)C(C)O1 (stereo not given)                growth             %          2.35
3    CCn1c(SC/C(=N/O)c2ccccc2)nnc1-c1ccccc1                growth             %           102
4  O=C(CN1CCN(C(=O)c2ccccc2)CC1)Nc1ccccc1SCc1ccccc1                growth             %          96.8
5  Cc1cc(CC(C)CC(C)(C)C)n(O)c(=O)c1 (stereo not given) (tested in a mixture with another compound)                growth             %          3.41
6          CCCc1cn(CC(=O)Nc2nc3ccccc3s2)nn1                growth             %           103
7  CCOC(=O)c1cc(C(=O)c2cc(OC)c(OC)c(OC)c2)n2c1ccc1c3cccnc3ccc12                growth             %          82.2
8  COc1cc(-c2nn(-c3cccc(NC(=O)CCN4CCN(c5ccccc5)CC4)c3)cc2-c2ccncc2)ccc1Cl                growth             %          6.87

Report growth for CCN(CC)CCNc1ccc(C)c2sc3cc(Cl)ccc3c(=O)c12 tested on NCI-H460 lung.
1.44

###

- Tested on: LOX IMVI melanoma
- protocol_notes: NCI-60 one-dose screen, 48 h (100 = growth as untreated, 0 = no growth, -100 = all killed)
- condition_label: 10 µM
The panel holds about 83,000 compounds, 20% with a hit somewhere; the sample as a whole holds those more often.
The label is label 1 for growth below 80% and label 0 for growth equal to or exceeding 80%.

Is growth strictly under 80% for the entry CC(C)=CCC/C(C)=C/CC/C(C)=C/CC/C=C(\C)CC/C=C(\C)CCC(=O)Nc1ccn(C2OC(CO)C(O)C2(F)F)c(=O)n1 (stereo not given) ?
label 1

Same thing, different compound: CN(C)CCCOc1ccccc1NC1=C(Cl)C(=O)C(Nc2ccccc2OCCCN(C)C)=C(Cl)C1=O
label 1

###

- Tested on: TK-10 renal
- protocol_notes: NCI-60 one-dose screen, 48 h (100 = growth as untreated, 0 = no growth, -100 = all killed)
- condition_label: 10 µM
About 83,000 compounds went through this panel and 20% of them were active in at least one assay; those are over-represented in the sample as a whole.
Give measured growth for each item. Keep answers brief.
One number for each entry, in %.

Worked cases, growth given:
In [3]: df
Out[3]:
                                   compound  experimental_target  experimental_readout  assay_result
0  CC(C)(C)OC(=O)CN1CCc2c(sc3ncnc(N/N=C/c4cccc5ccccc45)c23)C1          TK-10 renal                growth          50.5
1  COc1cc(-c2csc(NC(=O)Nc3cc(C(F)(F)F)cc(C(F)(F)F)c3)n2)cc(OC)c1OC          TK-10 renal                growth          9.24
2  Cc1cc(NC(=O)c2ccc(C)c(Nc3nccc(-c4cccnc4)n3)c2)cc(-n2cnc(C)c2)c1          TK-10 renal                growth         -20.5
3  Cc1ccc(C2=NN(c3ccc(S(C)(=O)=O)cc3)C(=O)CC2)cc1          TK-10 renal                growth            67
4  CC(C)(C)OC(=O)CN1CCc2c(sc3ncnc(N/N=C/c4ccccc4Br)c23)C1          TK-10 renal                growth          90.8

Batch of 5 compounds: report growth for each.
1. O=C(CSc1nnc(-c2ccc(Cl)cc2)o1)Nc1ccc(C(=O)/C=C/c2ccc(Cl)cc2)cc1
2. CC1C(=NC(=O)c2cnccn2)C(C)C(c2ccc(Cl)cc2)NC1c1ccncc1 (stereo unspecified)
3. Cc1cc(Cl)ccc1Nc1nc(C(F)(F)F)ccc1C(=O)N/N=C/c1cccc(O)c1
4. NC(=O)c1cccc(-n2ccc3cc(NC(=O)Nc4ccc(Cl)c(C(F)(F)F)c4)ccc32)n1
5. COc1ccc(-c2cc(-c3ccc(OC)c(OC)c3)nc(SCCCC(=O)NO)n2)cc1

118
130
85.9
83.7
-0.0305

Batch of 6 compounds: report growth for each.
1. Cc1ccc(-n2c(C)nn3c(=O)c4c5c(sc4nc23)CN(C)CC5)cc1
2. Cc1ccc(NCCNCC(C)(C)O)c2c(=O)c3ccc(Cl)cc3sc12
3. CCOC(=O)C(C)(c1ccccc1)c1ccccc1
4. O=C1CC(SC(=S)C2CCCC2=O)C(=O)N1 (stereo unspecified)
5. Clc1ccc2c(c1)C(N1CCNCC1)=Nc1ccccc1O2
6. COc1ccc(NC(=O)C2CC3C=CC2C3)c([N+](=O)[O-])c1 (stereo unspecified)

1. 82.4
2. 74.2
3. 102
4. 108
5. 64.9
6. 109

Batch of 8 compounds: report growth for each.
1. CC(C)[N+]1(C)C2CC[C@@H]1CC(OC(=O)C(CO)c1ccccc1)C2 (stereo partly specified)
2. Cc1cc(SC#N)cc(C(C)(C)C)c1O
3. CC(C)(C)c1nn(-c2ccccc2)c2c1CC1(CN2Cc2ccc(Cl)cc2)C(=O)c2ccccc2C1=O
4. O=c1[nH]c(=O)n(C2C[C@H](O)[C@@H](CO)O2)cc1C(F)(F)F (stereo partly specified)
5. COc1cc2c3c(n(C4CCN(C)CC4)c(=O)c2cc1OC)-c1cc2c(cc1C3=O)OCO2
6. CC(CN(C)C)Oc1ccc(OC(C)CN(C)C)c2c1C(=O)c1ccccc1C2=O (stereo unspecified)
7. CCN1CC(CCN2CCOCC2)C(C(c2ccccc2)c2ccccc2)C1=O (stereo unspecified)
8. CCn1cc(C(=O)O)c(=O)c2cc(F)c(N3CCNCC3)cc21

[107, 108, 99.3, 104, 86.9, 42.7, 114, 116]

Batch of 8 compounds: report growth for each.
1. O=C(O)c1cn(C2CC2)c2cc(N3CCN(C(=O)c4cc(-c5ccc(Cl)cc5)nc5ccccc45)CC3)c(F)cc2c1=O
2. O=C(Nc1ccc(NS(=O)(=O)c2ccc(F)cc2)cc1)C12CC3CC(CC(C3)C1)C2
3. Cc1cc(SCc2ccccc2)nc(N)n1
4. Cc1cc(C)nc(NS(=O)(=O)c2ccc(Nc3nc4nc(NCc5ccccc5)nc(-c5ccc(O)cc5)c4c(=O)[nH]3)cc2)n1
5. CC1OC2CC(=O)OC2C2=C1C(=O)c1c(O)c3c(c(O)c1C2=O)C1CC(O)C3(O)C(C)O1 (stereo unspecified)
6. CCOc1ccccc1/C=N/N1CCCCCC1
7. S=C(SSC(=S)N(c1ccccc1)c1ccccc1)N(c1ccccc1)c1ccccc1
8. COc1cc(-c2nn(-c3cccc(NC(=O)CCN4CCN(Cc5ccccc5)CC4)c3)cc2-c2ccncc2)ccc1Cl

113
96.7
107
10.3
-16.6
104
95.3
26.1

Batch of 6 compounds: report growth for each.
1. CCOC(=O)c1cc(C(=O)c2cc(OC)c(OC)c(OC)c2)n2nc(C)ccc12
2. Cc1nc2n(c(=O)c1CCN1CCC(c3noc4cc(F)ccc34)CC1)CCC[C@@H]2O
3. CCOC(=O)Cn1c(=O)c2sc3ncccc3c2n2nnc(-c3ccccc3)c12
4. c1ccc2c(c1)Cc1ccccc1N2CCN1CCCCC1
5. COc1ccc2c(c1)C(CC(=O)NN)CCC2 (stereo unspecified)
6. COc1cccc2ccc(CC(O)(c3ccccc3)c3ccccc3)nc12

[78, 109, 132, 104, 98.7, 128]

Batch of 3 compounds: report growth for each.
1. NS(=O)(=O)c1ccc(Br)cc1
2. COc1cc(-c2csc(NC(=O)Nc3ccc(Cl)c(C(F)(F)F)c3)n2)cc(OC)c1OC
3. Cc1n[nH]c(C)c1N=Nc1cccc2c1C(=O)c1ccccc1C2=O

1: 90.4; 2: -4.34; 3: 97.8
